Data credit: PubChem BioAssay (NCATS)

Biological target: Luciferin 4-monooxygenase (Photinus pyralis) (UniProt P08659)
Sequence (P08659 whole entry, looked up): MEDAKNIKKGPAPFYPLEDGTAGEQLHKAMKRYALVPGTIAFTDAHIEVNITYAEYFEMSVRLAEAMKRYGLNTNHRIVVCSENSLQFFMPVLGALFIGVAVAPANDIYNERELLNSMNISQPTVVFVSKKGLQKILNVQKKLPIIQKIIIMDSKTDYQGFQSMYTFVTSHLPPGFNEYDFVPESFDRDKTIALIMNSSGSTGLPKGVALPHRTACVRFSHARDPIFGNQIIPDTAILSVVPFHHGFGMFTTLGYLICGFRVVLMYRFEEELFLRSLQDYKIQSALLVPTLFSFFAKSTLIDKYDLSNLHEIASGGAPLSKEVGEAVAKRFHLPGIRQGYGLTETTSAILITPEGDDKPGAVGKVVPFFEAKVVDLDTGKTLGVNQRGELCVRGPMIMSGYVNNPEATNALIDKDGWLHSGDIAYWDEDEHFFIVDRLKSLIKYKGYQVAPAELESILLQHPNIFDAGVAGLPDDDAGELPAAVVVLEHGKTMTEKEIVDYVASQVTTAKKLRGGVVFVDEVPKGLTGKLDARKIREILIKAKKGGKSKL
Experiment: Biochemical firefly luciferase enzyme assay for NPC (AID 624030);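 also: purified P. pyralis luciferase at 10 nM with luciferin and ATP substrate; nearly all actives have a fitted effect of over 70% in size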
Conditions: purified P. pyralis luciferase, luminescence, 5 min; series mostly up to 58.6 µM
Inconclusive results are not listed. The source made the active and inactive calls. Calls follow the shape of the dose curve; as a rule, active = well fitted inhibition curve with a large enough effect; inconclusive = small, poorly fitted or top-dose-only effect; inactive = flat fitted curve, though single readings scatter.
readout-type: outcome

# count of solved cases: 5
| compound | outcome |
| --- | --- |
| C[C@H](O)C(=O)Nc1c(I)c(C(=O)NC(CO)CO)c(I)c(C(=O)NC(CO)CO)c1I | inactive |
| COc1c2occc2c(OC)c2c(=O)cc(C)oc12 | inactive |
| CCCCOc1ccc(OCCCN2CCOCC2)cc1 | inactive |
| c1ccc(OCc2ccc(CCCN3CCOCC3)cc2)cc1 | inactive |
| CCC(C(=O)OCCN(CC)CC)c1ccccc1 (stereo unspecified) | inactive |

Request - read-out outcome | tested on Luciferin 4-monooxygenase (Photinus pyralis) (UniProt P08659) | compound CC(=O)N(O)CCCCCNC(=O)CCC(=O)N(O)CCCCCNC(=O)CCC(=O)N(O)CCCCCN
inactive

Would you kindly repeat that for CCN(CCCc1ccccc1)CCCc1ccccc1 ?
inactive

Next: CC(C)COC(=O)OCN1C(=O)CN(CCN2CC(=O)N(COC(=O)OCC(C)C)C(=O)C2)CC1=O
inactive

Can you check CN=C(NC#N)NCCSCc1csc(N=C(N)N)n1 next?
inactive

Another compound: CCOC(=O)c1cccc(N)c1
inactive

Continue with COC1=CC(=O)C[C@@H](C)[C@]12Oc1c(Cl)c(OC)cc(OC)c1C2=O
inactive
